# Test system: NIH3T3
# methodDescription: Inhibition of PDGF-induced phosphotidyl inositol turnover in PLCgamma1 expressing mouse NIH3T3 cells
# Format: functional, cell-based
pIC50: −log10 of the molar value.

compound | pIC50
O=c1cc(-c2ccc(O)c(-c3c(O)cc(O)c4c(=O)cc(-c5ccc(O)cc5)oc34)c2)oc2cc(O)cc(O)c12 [AMENTOFLAVONE] | 5.04

---

# tgt: 1-phosphatidylinositol 4,5-bisphosphate phosphodiesterase gamma-1 (Homo sapiens, UniProt P19174)
# Sequence (P19174 whole entry): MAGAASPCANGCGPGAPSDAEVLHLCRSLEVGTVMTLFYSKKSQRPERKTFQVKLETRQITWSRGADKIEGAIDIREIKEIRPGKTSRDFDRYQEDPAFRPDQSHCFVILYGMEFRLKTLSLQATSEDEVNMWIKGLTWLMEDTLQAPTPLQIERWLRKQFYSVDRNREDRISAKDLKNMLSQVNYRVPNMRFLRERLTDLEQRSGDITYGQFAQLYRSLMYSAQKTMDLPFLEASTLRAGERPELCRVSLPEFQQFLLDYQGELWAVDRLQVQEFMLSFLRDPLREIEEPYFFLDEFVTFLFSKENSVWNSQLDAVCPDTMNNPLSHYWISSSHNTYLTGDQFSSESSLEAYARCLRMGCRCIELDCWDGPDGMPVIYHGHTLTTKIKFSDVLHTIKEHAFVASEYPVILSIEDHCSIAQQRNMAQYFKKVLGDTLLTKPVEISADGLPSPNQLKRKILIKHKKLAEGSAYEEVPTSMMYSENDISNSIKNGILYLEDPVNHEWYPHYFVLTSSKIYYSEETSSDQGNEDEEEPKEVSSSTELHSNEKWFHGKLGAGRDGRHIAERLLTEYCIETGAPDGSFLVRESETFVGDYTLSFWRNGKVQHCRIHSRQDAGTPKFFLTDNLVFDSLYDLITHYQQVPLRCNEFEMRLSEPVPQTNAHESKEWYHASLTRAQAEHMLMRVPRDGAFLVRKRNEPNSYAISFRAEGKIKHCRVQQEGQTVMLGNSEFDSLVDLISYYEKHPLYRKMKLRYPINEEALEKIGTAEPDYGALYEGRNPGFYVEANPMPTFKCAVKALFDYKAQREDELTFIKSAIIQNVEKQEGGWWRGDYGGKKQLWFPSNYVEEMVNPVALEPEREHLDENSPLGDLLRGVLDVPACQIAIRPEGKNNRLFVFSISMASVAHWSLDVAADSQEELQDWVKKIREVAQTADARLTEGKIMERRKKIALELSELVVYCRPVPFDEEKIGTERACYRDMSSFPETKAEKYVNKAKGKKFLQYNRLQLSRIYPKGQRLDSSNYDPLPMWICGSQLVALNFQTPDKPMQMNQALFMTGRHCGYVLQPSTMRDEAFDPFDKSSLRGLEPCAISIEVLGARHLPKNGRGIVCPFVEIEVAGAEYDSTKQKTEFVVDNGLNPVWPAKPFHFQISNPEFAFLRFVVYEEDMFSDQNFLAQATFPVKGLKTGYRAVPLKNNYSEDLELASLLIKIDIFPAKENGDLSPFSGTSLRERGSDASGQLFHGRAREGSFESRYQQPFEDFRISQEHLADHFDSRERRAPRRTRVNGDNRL

compound | IC50 (µM)
O=c1cc(-c2ccc(O)c(-c3c(O)cc(O)c4c(=O)cc(-c5ccc(O)cc5)oc34)c2)oc2cc(O)cc(O)c12 [AMENTOFLAVONE] | 29
